study_target: RL DHFR (Rattus norvegicus, UniProt Q920D2)
Construct: Toxoplasmosis gondii (Tg) and rat liver (RL); from tissue; host or cells: rat liver
Sequence (Q920D2 whole entry): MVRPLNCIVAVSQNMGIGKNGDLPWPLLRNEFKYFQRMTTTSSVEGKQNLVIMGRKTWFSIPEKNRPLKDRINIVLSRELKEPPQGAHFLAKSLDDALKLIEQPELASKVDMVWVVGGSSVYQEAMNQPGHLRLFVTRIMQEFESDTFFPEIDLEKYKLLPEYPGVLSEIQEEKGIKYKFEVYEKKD
measurement_protocol: Inhibition of DHFR from rat liver
Format: biochemical
experimental_parameters: Table 16; read-out: RL DHFR IC50
pIC50: −log10 of the molar value.
Consider the following compounds and their measured pIC50 readings.
endpoint_name: pIC50

>>> endpoint_value("Nc1nc(N)c2c(CNc3ccc4ccccc4c3)coc2n1 [Compound 163]")
4.44
>>> endpoint_value("Nc1nc(N)c2c(CNc3ccccc3-c3ccccc3)coc2n1 [Compound 167]")
3.73

---

study_target: Tg DHFR (Toxoplasma gondii, UniProt Q07422)
Sequence (Q07422 1-610): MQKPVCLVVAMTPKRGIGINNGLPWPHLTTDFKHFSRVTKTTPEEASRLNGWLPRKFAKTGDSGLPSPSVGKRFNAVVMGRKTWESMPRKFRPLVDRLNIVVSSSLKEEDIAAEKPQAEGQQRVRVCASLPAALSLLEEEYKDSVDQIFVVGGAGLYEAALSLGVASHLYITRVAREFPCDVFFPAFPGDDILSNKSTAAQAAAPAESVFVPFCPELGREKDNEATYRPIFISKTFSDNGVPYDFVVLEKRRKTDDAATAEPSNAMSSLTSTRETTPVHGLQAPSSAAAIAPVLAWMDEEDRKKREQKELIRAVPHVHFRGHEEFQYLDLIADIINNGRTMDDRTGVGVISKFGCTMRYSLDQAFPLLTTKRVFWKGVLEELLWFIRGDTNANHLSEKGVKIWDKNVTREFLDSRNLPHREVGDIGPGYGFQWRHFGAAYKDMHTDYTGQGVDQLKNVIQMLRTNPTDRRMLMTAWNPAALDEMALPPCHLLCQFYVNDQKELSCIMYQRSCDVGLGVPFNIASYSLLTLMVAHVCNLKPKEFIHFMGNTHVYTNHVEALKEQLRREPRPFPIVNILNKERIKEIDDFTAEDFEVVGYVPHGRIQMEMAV
measurement_protocol: biochemical
Format: biochemical
experimental_parameters: Table 7; read-out: Tg DHFR IC50
# note: exactly 4 µM is not below, so it is false; use true for IC50 strictly under it

>>> class("COc1ccc(NCc2c[nH]c3nc(N)nc(N)c23)cc1 [Compound 3]")
"false"
>>> class("CCOc1ccc(OCC)c(NCc2c[nH]c3nc(N)nc(N)c23)c1 [Compound 5]")
"false"
>>> class("COc1ccc(OC)c(NCc2cnc3[nH]c(N)nc(N)c2-3)c1 [Compound 4]")
"true"
>>> class("COc1cc(NCc2c[nH]c3nc(N)nc(N)c23)cc(OC)c1OC [Compound 1]")
"false"
>>> class("Nc1nc(N)c2c(CNc3ccc(Cl)c(Cl)c3)c[nH]c2n1 [Compound 6]")
"true"
>>> class("COc1ccc(NCc2c[nH]c3nc(N)nc(N)c23)cc1OC [Compound 2]")
"false"

---

study_target: Tg DHFR (Toxoplasma gondii, UniProt Q07422)
measurement_protocol: biochemical
Type: biochemical
pIC50: −log10 of the molar value.
endpoint_name: pIC50

>>> endpoint_value("Nc1nc(N)c2c(CNc3ccc(C(=O)N[C@@H](CCC(=O)O)C(=O)O)cc3)c[nH]c2n1")
6.68

---

System: R1 cells
measurement_protocol: Growth inhibition of R1 subline (increased DHFR)
Type: cell-based
experimental_parameters: Homo sapiens, read-out: Growth inhibition EC50
pEC50: −log10 of the molar value.
endpoint_name: pEC50

>>> endpoint_value("CN(Cc1cnc2nc(N)nc(N)c2n1)c1ccc(C(=O)N[C@@H](CCC(=O)O)C(=O)O)cc1 [MTX, methotrexate, reference compound]")
6.17

---

study_target: RL DHFR (Rattus norvegicus)
Construct: Toxoplasmosis gondii (Tg) and rat liver (RL); from tissue; host or cells: rat liver
measurement_protocol: Inhibition of DHFR from rat liver
Format: biochemical
experimental_parameters: Table 26; read-out: Inhibitory Concentrations (IC50) RL DHFR
pIC50: −log10 of the molar value.
endpoint_name: pIC50

>>> endpoint_value("COc1cc(CCc2c[nH]c3nc(N)nc(C)c23)cc(OC)c1OC [Compound 113-154A]")
5.64

---

Consider the following compounds and their measured EC50 readings.
Test system: FaDu
measurement_protocol: Growth inhibition of FaDu human squamous carcinoma cell line
Assay type: cell-based
experimental_parameters: Table 15; continuous (120 hours) exposure; read-out: Growth inhibition EC50, FaDu
endpoint_name: EC50

>>> endpoint_value("CN(Cc1ccc(S(=O)(=O)N2CCOCC2)cc1)c1ccc2c3c(cccc13)C(=N)N2 [AG331]")
"1000 nM"
>>> endpoint_value("C#CCN(Cc1ccc2nc(N)[nH]c(=O)c2c1)c1ccc(C(=O)N[C@@H](CCC(=O)O)C(=O)O)cc1 [PDDF]")
"1700 nM"

---

Tested on: R30dm cells
measurement_protocol: Growth inhibition of R30dm subline (decreased polyglutamate synthase)
Assay type: cell-based
experimental_parameters: Homo sapiens, Table 8, continuous (0-120 hours) exposure, read-out: Growth inhibition EC50, R30dm
endpoint_name: EC50

>>> endpoint_value("Nc1nc(N)c2c(CNc3ccc(C(=O)N[C@@H](CCC(=O)O)C(=O)O)cc3)c[nH]c2n1 [Compound 9]")
"36 nM"

---

study_target: Pc DHFR (Pneumocystis carinii, UniProt P16184)
Sequence (P16184 whole entry): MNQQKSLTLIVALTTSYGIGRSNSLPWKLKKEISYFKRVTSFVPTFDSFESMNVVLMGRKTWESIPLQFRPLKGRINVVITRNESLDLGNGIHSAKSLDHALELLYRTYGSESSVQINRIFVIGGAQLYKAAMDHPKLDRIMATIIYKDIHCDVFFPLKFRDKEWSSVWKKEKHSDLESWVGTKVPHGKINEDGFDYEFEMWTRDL
measurement_protocol: biochemical
experimental_parameters: Table 7; read-out: Pc DHFR IC50
endpoint_name: IC50 (µM)

>>> endpoint_value("COc1ccc(NCc2c[nH]c3nc(N)nc(N)c23)cc1OC")
119
>>> endpoint_value("COc1ccc(NCc2c[nH]c3nc(N)nc(N)c23)cc1")
279
>>> endpoint_value("Nc1nc(N)c2c(CNc3ccccc3)cnc-2[nH]1")
252
>>> endpoint_value("Nc1nc(N)c2c(CNc3ccc(Cl)c(Cl)c3)c[nH]c2n1")
35.3

---

study_target: UniProtKB P16184
measurement_protocol: biochemical
experimental_parameters: Table 16; read-out: Pc DHFR IC50
pIC50: −log10 of the molar value.
Consider the following compounds and their measured pIC50 readings.
endpoint_name: pIC50

>>> endpoint_value("Nc1nc(N)c2c(CNc3cc(Cl)ccc3Cl)coc2n1")
4.29
>>> endpoint_value("Nc1nc(N)c2c(CNc3cccc4ccccc34)coc2n1")
4.87
>>> endpoint_value("CN(Cc1coc2nc(N)nc(N)c12)c1ccc(Cl)c(Cl)c1")
4.35
>>> endpoint_value("Nc1nc(N)c2c(COc3ccc4ccccc4c3)coc2n1")
4.85
>>> endpoint_value("Nc1nc(N)c2c(CSc3ccc4ccccc4c3)coc2n1")
6.19
>>> endpoint_value("CN(Cc1coc2nc(N)nc(N)c12)c1cc(Cl)c(Cl)c(Cl)c1")
3.55
>>> endpoint_value("Nc1nc(N)c2c(CNc3ccc4ccccc4c3)coc2n1")
4.39

---

Consider the following molecules and their measured IC50 readings.
study_target: RL DHFR (Rattus norvegicus, UniProt Q920D2)
Construct: Toxoplasmosis gondii (Tg) and rat liver (RL); from tissue; host or cells: rat liver
measurement_protocol: Inhibition of DHFR from rat liver
Format: biochemical
experimental_parameters: Table 25; read-out: Inhibitor Concentrations (IC50) rlDHFR
endpoint_name: IC50 (µM)

>>> endpoint_value("Nc1nc(N)c2c(CNc3ccc4ccccc4c3)coc2n1")
36.5
>>> endpoint_value("Nc1nc(N)c2c(CSc3ccc4ccccc4c3)coc2n1")
12.3
>>> endpoint_value("Nc1nc(N)c2c(CNc3cc(Cl)ccc3Cl)coc2n1")
71.9
>>> endpoint_value("Nc1nc(N)c2c(CSc3cccc4ccccc34)coc2n1")
23
>>> endpoint_value("Nc1nc(N)c2c(CSc3ccccc3)coc2n1")
252
>>> endpoint_value("Nc1nc(N)c2c(COc3ccc4ccccc4c3)coc2n1")
60.3

---

study_target: Tg DHFR (Toxoplasma gondii)
measurement_protocol: biochemical
Type: biochemical
experimental_parameters: Table 16; read-out: Tg DHFR IC50
endpoint_name: IC50

>>> endpoint_value("Nc1nc(N)c2c(CNc3ccc(Oc4ccccc4)cc3)coc2n1")
"32.4 µM"
>>> endpoint_value("CN(Cc1coc2nc(N)nc(N)c12)c1ccc(Cl)c(Cl)c1")
"> 27 µM"
>>> endpoint_value("Nc1nc(N)c2c(CNc3ccc4ccccc4c3)coc2n1")
"38 µM"
>>> endpoint_value("Nc1nc(N)c2c(COc3ccc4ccccc4c3)coc2n1")
"> 42 µM"
>>> endpoint_value("Nc1nc(N)c2c(CNc3ccccc3Oc3ccccc3)coc2n1")
"> 12 µM"
>>> endpoint_value("COc1cccc(NCc2coc3nc(N)nc(N)c23)c1")
"> 31.3 µM"

---

Consider the following compounds and their measured pIC50 readings.
study_target: human recombinant TS (Homo sapiens)
Sequence (P04818 whole entry): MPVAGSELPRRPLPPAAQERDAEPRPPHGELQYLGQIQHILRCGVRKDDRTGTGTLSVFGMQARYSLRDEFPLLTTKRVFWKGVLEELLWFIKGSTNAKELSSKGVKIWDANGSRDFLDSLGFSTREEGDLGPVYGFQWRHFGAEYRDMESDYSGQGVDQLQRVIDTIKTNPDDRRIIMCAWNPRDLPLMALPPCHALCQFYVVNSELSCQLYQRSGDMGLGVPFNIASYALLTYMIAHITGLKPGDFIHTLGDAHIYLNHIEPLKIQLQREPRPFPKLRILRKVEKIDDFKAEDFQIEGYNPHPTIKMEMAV
measurement_protocol: Inhibition of human recombinant TS
experimental_parameters: Table 17; read-out: Human REC TS IC50
pIC50: −log10 of the molar value.
endpoint_name: pIC50

>>> endpoint_value("Nc1nc(N)c2c(CCc3ccc(C(=O)N[C@@H](CCC(=O)O)C(=O)O)cc3)coc2n1")
3.66
>>> endpoint_value("Nc1nc(N)c2c(CNCc3ccc(C(=O)N[C@@H](CCC(=O)O)C(=O)O)cc3)coc2n1")
4.20
